Target: T1, human C5a receptor (C5aR) on intact human polymorphonuclear leukocytes (PMNs) (human, UniProt P21730 1-350)
T1 construct: whole, on cells; Native receptor on fresh human PMNs; not a recombinant construct; also called PMN C5aR
T1 sequence (looked up): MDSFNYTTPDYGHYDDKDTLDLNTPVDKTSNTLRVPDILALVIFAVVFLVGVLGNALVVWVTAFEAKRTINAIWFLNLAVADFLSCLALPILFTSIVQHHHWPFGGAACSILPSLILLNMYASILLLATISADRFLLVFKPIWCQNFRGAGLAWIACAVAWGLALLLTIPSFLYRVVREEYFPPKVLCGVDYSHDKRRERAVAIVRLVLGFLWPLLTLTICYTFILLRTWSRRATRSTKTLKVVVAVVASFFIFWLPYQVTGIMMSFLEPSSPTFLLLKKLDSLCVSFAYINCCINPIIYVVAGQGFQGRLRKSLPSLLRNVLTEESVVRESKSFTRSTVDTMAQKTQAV
Test: unlabelled C5a competing with 125I-C5a for binding to intact human PMNs, 4 °C
pIC50: −log10 of the molar value.
readout-name: pIC50

[
  {
    "binder": "human recombinant C5a (ligand, UniProt P01031 678-751, looked up, tracer form: Hunter/Bolton labelled 125I (New England Nuclear); unlabelled competitor form: none stated, mature) TLQKKIEEIAAKYKHSVVKKCCYDGACVNNDETCEQRAARISLGPRCIKAFTECCVVASQLRANISHKDMQLGR",
    "value": 9.10
  }
]
